Form: system (GRK-5 (Homo sapiens)), quantity (pKi), values below.
pKi: −log10 of the molar value.
Property label: pKi

mol_smiles=O=C(CNc1cccc(F)c1)N/N=C/c1ccncc1 meas_value="< 5.00"
mol_smiles=O=C(CNc1cccc(OCc2ccccc2)c1)N/N=C/c1c(Cl)cncc1Cl meas_value="5.00 to 6.00"
mol_smiles=CSc1cccc(NCC(=O)N/N=C/c2c(Cl)cncc2Cl)c1 meas_value="5.00 to 6.00"
mol_smiles=NS(=O)(=O)c1cccc(NCC(=O)N/N=C/c2ccncc2)c1 meas_value="< 5.00"
mol_smiles=C/C(=N\NC(=O)CNc1cccc(C(=O)Nc2ccccc2)c1)c1ccncc1 meas_value="< 5.00"
mol_smiles=COc1cccc(NCC(=O)N/N=C(\C)c2ccncc2)c1 meas_value="5.00 to 6.00"
mol_smiles=O=C(CNc1cccc(Cl)c1)N/N=C/c1c(Cl)cncc1Cl meas_value="5.00 to 6.00"
mol_smiles=O=C(CNc1cccc(Oc2ccccc2)c1)N/N=C/c1ccncc1 meas_value="< 5.00"

###

- Assay system: GRK-3 (Homo sapiens, UniProt P35626)
- Sequence (P35626 1-688): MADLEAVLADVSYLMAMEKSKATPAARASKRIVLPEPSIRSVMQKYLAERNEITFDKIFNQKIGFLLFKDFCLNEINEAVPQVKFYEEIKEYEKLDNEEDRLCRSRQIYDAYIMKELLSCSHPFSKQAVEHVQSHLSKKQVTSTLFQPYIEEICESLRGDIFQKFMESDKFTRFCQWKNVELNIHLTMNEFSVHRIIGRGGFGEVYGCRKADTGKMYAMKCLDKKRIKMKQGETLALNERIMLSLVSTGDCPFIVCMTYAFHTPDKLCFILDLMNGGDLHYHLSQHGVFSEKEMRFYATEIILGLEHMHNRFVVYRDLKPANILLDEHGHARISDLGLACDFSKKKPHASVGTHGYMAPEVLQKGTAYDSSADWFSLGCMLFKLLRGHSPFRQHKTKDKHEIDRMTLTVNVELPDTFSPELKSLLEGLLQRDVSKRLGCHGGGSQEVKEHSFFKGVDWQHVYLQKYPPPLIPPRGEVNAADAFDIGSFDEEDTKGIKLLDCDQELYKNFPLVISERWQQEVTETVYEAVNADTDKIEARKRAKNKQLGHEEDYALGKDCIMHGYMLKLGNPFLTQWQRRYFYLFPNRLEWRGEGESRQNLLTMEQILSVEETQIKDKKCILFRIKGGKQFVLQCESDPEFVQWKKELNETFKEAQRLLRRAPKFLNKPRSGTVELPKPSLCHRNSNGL
Listing of entries alongside the reported Ki.
Property label: Ki

mol_smiles=O=C(CNc1cccc(Cl)c1)N/N=C/c1c(Cl)cncc1Cl meas_value="1000 to 10000 nM"
mol_smiles=O=C(CNc1cccc(Oc2ccccc2)c1)N/N=C/c1c(Cl)cncc1Cl meas_value="100 to 1000 nM"
mol_smiles=CCOc1cccc(NCC(=O)N/N=C/c2c(Cl)cncc2Cl)c1 meas_value="> 10000 nM"
mol_smiles=COc1cccc(NCC(=O)N/N=C/c2ccncc2)c1 meas_value="10 to 100 nM"
mol_smiles=O=C(CNc1cccc(Oc2ccccc2)c1)N/N=C/c1ccncc1 meas_value="100 to 1000 nM"
mol_smiles=CNC(=O)c1cccc(NCC(=O)N/N=C/c2c(Cl)cncc2Cl)c1 meas_value="100 to 1000 nM"
mol_smiles=CNC(=O)c1cccc(NCC(=O)N/N=C/c2ccncc2)c1 meas_value="100 to 1000 nM"
mol_smiles=O=C(CNc1cccc(OCc2ccccc2)c1)N/N=C/c1c(Cl)cncc1Cl meas_value="100 to 1000 nM"
mol_smiles=O=C(CNc1cccc(C(=O)Nc2ccccc2)c1)N/N=C/c1c(Cl)cncc1Cl meas_value="10 to 100 nM"
mol_smiles=C/C(=N\NC(=O)CNc1cccc(Oc2ccccc2)c1)c1ccncc1 meas_value="100 to 1000 nM"
